Values compiled from ChEMBL document CHEMBL1201862.

# System: OVCAR-5
# method: NCI tumour cell line growth inhibition, 48 h
The source made the active and inactive calls. No stated cut-off is given here; in the data, active = GI50 up to about 1.1 µM and inactive = higher.
Bench note: report the call from active, inactive

compound | system | qualitative_label
C[C@H]1CC[C@@]2(OC1)O[C@H]1C[C@H]3[C@@H]4CC[C@@H]5C[C@@H](OC6OC(CO)C(O)C(O)C6OC6OC(CO)C(O)C(O)C6O)CC[C@]5(C)[C@H]4CC[C@]3(C)[C@H]1[C@@H]2C (some centres not stated) | OVCAR-5 | inactive
CCOc1ccc(N2C(=O)NC3(c4ccccc4)N(C)C(=O)N(C)C23c2ccccc2)cc1 (configuration not stated) | OVCAR-5 | inactive
Cc1cccc(C(=O)O)c1C(=O)c1cccc2ccccc12 | OVCAR-5 | inactive
N#CC(NNC(=O)Cc1ccccc1)c1ccc([N+](=O)[O-])cc1 (configuration not stated) | OVCAR-5 | inactive
C=C1C(=O)O[C@@H]2C[C@]3(C)CC[C@]4(C)[C@H](CC[C@@H]5[C@@]6(C)CCC(=O)C(C)(C)[C@@H]6CC[C@]54C)[C@H]3[C@H]12 [OCHRACEOLIDE A] | OVCAR-5 | inactive
CC1(C)C2CCC1(C)[C@H](n1c(=O)n([C@@H]3CC4CCC3(C)C4(C)C)c(=O)n([C@@H]3CC4CCC3(C)C4(C)C)c1=O)C2 | OVCAR-5 | inactive

INPUT: Test call, this compound: "c1ccc(C(=NNc2nc3ccccc3[nH]2)c2ccccn2)nc1"
OUTPUT: inactive

INPUT: Test call, this compound: Cc1c(F)c(N)c2c(=O)cc(-c3ccc(NC(=O)C(N)CCCNC(=N)N)c(F)c3)oc2c1F (configuration not stated)
OUTPUT: active

---

# Tested on: HCT-116
# method: NCI tumour cell line growth inhibition, 48 h
Active and inactive are the calls of the source. Cut-off read from the data, not from the text of the source: active = GI50 up to about 1.1 µM and inactive = higher.
Please provide measured GI50 for the entries that follow.

molecule | val
C[C@H]1CC[C@@]2(OC1)O[C@H]1C[C@H]3[C@@H]4CC[C@@H]5C[C@@H](OC6OC(CO)C(O)C(O)C6OC6OC(CO)C(O)C(O)C6O)CC[C@]5(C)[C@H]4CC[C@]3(C)[C@H]1[C@@H]2C (stereo partly drawn) | 2.01 µM (inactive)
CC(C)(C)C1=Cc2cc3cc(C(C)(C)C)[nH]c(=O)c3cc2S(=O)(=O)N1 | 20.5 µM (inactive)

The recorded GI50 for entry "CCOC(=O)/C(C(=S)Nc1ccccc1)=C(/N)N1CCCC1" equals 65.5 µM (inactive)

---

# Tested on: IGROV-1
# method: NCI tumour cell line growth inhibition, 48 h
Calls of active or inactive are those of the source. Cut-off read from the data, not from the text of the source: active = GI50 up to about 1.1 µM and inactive = higher.
recorded_metric: GI50

These solved cases illustrate the format of a correct answer.
compound | GI50
CCOC(=O)C1=C(C)N(c2ccc(OC)cc2)C2(O)C=CC(O)=C3C(=O)c4ccccc4C(=O)C312 (stereo not drawn) | 3.56 µM (inactive)
C=C1CC[C@@]2(OC1)OC1C[C@H]3[C@@H]4CC=C5C[C@@H](O)CC(OC6OCC(OC(=O)[C@@H](O)[C@@H](C)CC)C(OC(C)=O)C6OC6OC(C)C(O)C(O)C6O)[C@]5(C)[C@H]4CC[C@]3(C)C1[C@@H]2C (stereo partly drawn) | 2.56 µM (inactive)
O=[N+]([O-])c1ccc2c(c1)n1c(N3CCCC3)[n+]3ccccc3c1c1c3ccccn3c(N3CCCC3)[n+]21.[O-][Cl+3]([O-])([O-])[O-].[O-][Cl+3]([O-])([O-])[O-] | > 100 µM (inactive)
CCO/C=N/NC(=O)CSc1nc2ccc(I)cc2c(=O)n1Cc1ccccc1 | 39 µM (inactive)
N#Cc1c(N)nc(Sc2ccccc2N)c(C#N)c1-c1ccc(Cl)cc1 | 5.52 µM (inactive)

Please report GI50 for every entry that follows.
1. Cc1cc(N(CCC#N)CCC#N)ccc1C(/N=N\c1ccc(C(=O)O)cc1)=N\NC(=O)c1cc(Cl)ccc1O
2. CC(C)=CCN(N=O)c1ncnc2[nH]cnc12
3. C/C(=N\NC(=S)NC(CCC(=O)O)C(=O)O)c1cnccn1 (stereo not drawn)

OUTPUT:
24.7 µM (inactive)
> 100 µM (inactive)
> 100 µM (inactive)

---

# Test system: RPMI-8226
# method: NCI tumour cell line growth inhibition, 48 h
Active and inactive are the calls of the source. Rule as the data show it: active = GI50 up to about 1.1 µM and inactive = higher.
Bench note: report the call from active, inactive

These solved cases illustrate the format of a correct answer.
molecule | system | qualitative_label
COC1(OC)N=C(N)C2(C#N)C3(C(=O)N(C(C)C)N=C3C)C12C#N (stereo not given) | RPMI-8226 | inactive
C/C(=C\C(=N\NC(=N)N)c1ccccc1)c1ccccc1 | RPMI-8226 | active
O=C(Cc1ccccc1[N+](=O)[O-])C(CO)c1ccccc1[N+](=O)[O-] (stereo not given) | RPMI-8226 | inactive
C=CCN(N=O)C(=O)N(CCCCC(NC(C)=O)C(=O)NCc1ccccc1)Cc1ccccc1 (stereo not given) | RPMI-8226 | inactive
COc1ccc2nc(N/N=C/C(C)=N/Nc3cc(C)c4cc(OC)ccc4n3)cc(C)c2c1 | RPMI-8226 | inactive

INPUT: Test call, this molecule: "CSc1ccc(Cc2cc(C(C)(C)C)cc(C(C)(C)C)c2O)cc1"
OUTPUT: inactive

INPUT: Test call, this molecule: "Cc1ccc(-c2c(C#N)c(-c3ccccc3)n(NS(=O)(=O)c3ccc(C)cc3)c(=O)c2C#N)cc1"
OUTPUT: inactive

INPUT: Test call, this molecule: "CCOC(=O)c1cn(CC)c(=O)n2c1nc1ccccc12"
OUTPUT: inactive

INPUT: Test call, this molecule: COC(=O)C12CCC(CC1=O)C2(C)C (stereo not given)
OUTPUT: inactive

INPUT: Test call, this molecule: "COC(=O)/C=C/c1ccc2c(c1)[C@H](C(=O)OC)[C@@H](c1ccc(O)cc1)O2"
OUTPUT: inactive

---

# Tested on: SK-MEL-5
# method: NCI tumour cell line growth inhibition, 48 h
Activity calls are given as the source filed them. Cut-off read from the data, not from the text of the source: active = GI50 up to about 1.1 µM and inactive = higher.
Bench note: report the call from active, inactive

These solved cases illustrate the format of a correct answer.
compound | qualitative_label
CCOC(=O)C1=C(OC(OCC)C(CC)[Se]c2ccccc2)CCC1 (configuration not stated) | inactive
C[C@@]1(O)C[C@@H](N2C(=O)O[C@@H](c3ccccc3)[C@H]2c2ccccc2)[C@@H]1COCc1ccccc1 | inactive
CC1(C)COC(c2cccnc2/C=N/O)=N1 | inactive
Cc1ccc2nc(CC(=O)c3ccc4ccccc4c3)c(O)nc2c1 | inactive
N#CC(C(=O)C(N)=O)c1ccccc1Cl (configuration not stated) | inactive

Now for another entry.
INPUT: Test call, this compound: "Cc1ccc(Nc2cn(COCc3ccccc3)c(=O)[nH]c2=O)cc1"
OUTPUT: inactive

---

# Test system: MDA-MB-435
# method: NCI tumour cell line growth inhibition, 48 h
Active and inactive are the calls of the source. Cut-off read from the data, not from the text of the source: active = GI50 up to about 1.1 µM and inactive = higher.
Please provide measured GI50 for the entries that follow.

compound | GI50
COC(=O)c1ccc2c(c1)CC1(C2)Cc2cc3c(c(C(=O)OC)c2C1)CCCC3 (centres undefined) | 84.1 µM (inactive)
COC(=O)[C@H](CCSC)NC(=O)c1ccc(CNC(=O)/C=C/c2cccc(Oc3ccccc3)c2)cc1 | 14.3 µM (inactive)
COc1ccc(-c2c3c(n(C4OC(CO)C(O)C(O)C4O)c(=S)c2C#N)CC(C)(C)CC3=O)cc1 (centres undefined) | > 100 µM (inactive)

Please report GI50 for every entry that follows.
1. CSc1c(C#N)c(=O)[nH]c2[nH]nc(C)c12
2. O=C1Nc2ccccc2/C1=C/c1c(Cl)[nH]c2ccc(O)cc12
3. O=[N+]([O-])c1cccc([N+](=O)[O-])c1Cl
4. c1ccc2c(c1)Cn1c-2nc2ccccc21
5. Cc1cc2nc3c(C#N)c(-c4ccccc4)cc(Nc4cccc(C(F)(F)F)c4)n3c2cc1C
6. O=C1c2ccccc2C(=O)c2c1ccc1c2OCO1

OUTPUT:
1: > 100 µM (inactive); 2: 0.214 µM (active); 3: 17.9 µM (inactive); 4: > 100 µM (inactive); 5: 5.13 µM (inactive); 6: > 100 µM (inactive)

Please report GI50 for every entry that follows.
1. O=C(CCl)Nc1cc(Cl)c(Cl)cc1Cl
2. COC(=O)C1(C(=O)OC)CC(=O)c2c(OC(=O)c3cccc(OC)c3C#N)ccc(OC(=O)c3cccc(OC)c3C#N)c2C1
3. C/C(=C\C(=N\NC(=N)N)c1ccccc1)c1ccccc1
4. Cc1cc(N(CCC#N)CCC#N)ccc1C(/N=N\c1ccc(C(=O)O)cc1)=N\NC(=O)c1cc(Cl)ccc1O

OUTPUT:
1: 1.38 µM (inactive); 2: > 100 µM (inactive); 3: 1.24 µM (inactive); 4: > 100 µM (inactive)

The recorded GI50 for entry C[C@H]1CC[C@@]2(OC1)O[C@H]1C[C@H]3[C@@H]4CC[C@@H]5C[C@@H](OC6OC(CO)C(O)C(O)C6OC6OC(CO)C(O)C(O)C6O)CC[C@]5(C)[C@H]4CC[C@]3(C)[C@H]1[C@@H]2C (some centres undefined) equals 2.15 µM (inactive)
